Target: Anti-CD28 scFv (VH - linker 1 - VL) (biotinylated (site not stated))
Sequence (scFv, as listed by the source): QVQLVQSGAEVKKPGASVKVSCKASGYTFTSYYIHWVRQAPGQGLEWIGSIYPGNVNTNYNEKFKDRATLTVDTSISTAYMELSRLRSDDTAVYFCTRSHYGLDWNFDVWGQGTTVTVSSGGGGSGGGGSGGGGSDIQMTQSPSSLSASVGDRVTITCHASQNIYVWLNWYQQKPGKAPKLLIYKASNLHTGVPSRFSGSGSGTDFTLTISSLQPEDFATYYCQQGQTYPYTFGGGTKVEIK
Assay: clonal phage ELISA on biotinylated anti-CD28 scFv captured on neutravidin plates, anti-M13 HRP detection;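 note: crude phage supernatants were used, and before phage were added the wells were pretreated with blocking buffer, either alone or with soluble CD28 protein, without washing in between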
parameter: CD28 scFv signal
Number only, please.

What does the data say about its CD28 scFv signal? Entry: MDWCPRFLWDECFF (tested as crude clonal phage supernatant; also called position 7 is F in the position column) [Phage-133]
2.28

What does the data say about its CD28 scFv signal? Entry: MDWCPRPLWDMCFF (tested as crude clonal phage supernatant) [Phage-124]
2.4

What does the data say about its CD28 scFv signal? Entry: MDWCPRSLWIYCFN (tested as crude clonal phage supernatant) [Phage-131]
2.34

What does the data say about its CD28 scFv signal? Entry: MDWCPVILWDFCFN (tested as crude clonal phage supernatant; also called position 11 is F in the position column) [Phage-142]
2.03
